Entry source: patent US20140303084A1

Target Desc: human Factor IXa (human, UniProt P00740 47-191; P00740 227-461)
Experiment Summary: cell-based or functional assay
Square brackets hold non-standard residues; d marks the D form. Ends that are not written are not given here. Aib = CC(C)(N)C(=O)O
Known EC50 [µM], FXa generation assay of a selection of binders
Experimental Endpoint: EC50 [µM], FXa generation assay

{"Binder": "RRAPGKLTCLASYCWLFW[dT]GIA (not fully specified (C-terminus, bridges); printed as RRAPGKLTCLASYCWLFWtGIA; cysteine pairing not given here) [RRAPGKLTCLASYCWLFWtGIA]", "Reported Result": "< 0.5 µM"}
{"Binder": "RRAPGKLQCLASYCWLFWT[Aib]IA (not fully specified; printed as RRAPGKLQCLASYCWLFWT-Aib-IA; cysteine pairing not given here) [RRAPGKLQCLASYCWLFWT-Aib-IA]", "Reported Result": "> 1 µM"}
{"Binder": "TLDSKNLQCLGSSCWLFSSGLS", "Reported Result": "> 20 µM"}
{"Binder": "SLISMTNPSGRRVPGKLTCLASYCWLFWTGIA [SLISMTNPSG RRVPG KLTCLASYCWLFWTGIA]", "Reported Result": "< 0.5 µM"}
{"Binder": "KLTALASYAWLF", "Reported Result": "> 5.8 µM"}
